Quick reference for Top among some binders
# Target desc: T1, human G-protein-coupled receptor family C group 5 member D (GPRC5D) (human, UniProt Q9NZD1 1-345)
# T1 construct: whole, on cells; also called human GPRC5D protein
# T1 sequence (Q9NZD1 whole entry): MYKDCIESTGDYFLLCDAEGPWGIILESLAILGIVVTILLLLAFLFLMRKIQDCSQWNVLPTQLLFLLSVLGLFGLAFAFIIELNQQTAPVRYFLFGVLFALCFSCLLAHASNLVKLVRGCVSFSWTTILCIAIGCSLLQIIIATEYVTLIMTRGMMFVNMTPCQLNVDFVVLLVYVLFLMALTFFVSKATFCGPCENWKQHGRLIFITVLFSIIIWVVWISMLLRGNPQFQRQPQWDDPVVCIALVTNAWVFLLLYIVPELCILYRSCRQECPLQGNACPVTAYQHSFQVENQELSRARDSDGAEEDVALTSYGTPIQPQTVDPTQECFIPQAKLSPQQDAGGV
# Assay name: FACS, CHO-K1/human GPRC5D, hybridoma supernatant

{"Binder": "40A5B2 (antibody, V domains shown, murine antibody from hybridoma supernatant) VH: EVQLQQSGPELVKPGASVKMSCKASGYTFTRNIMHWVKQKPGQGLEWIGYINPYNAGSKYNEKFKGKATLTSDISSSTAYMELSSLTSEDSAVYYCAREEVYYRYGAWFAYWGHGTLVTVSA VL: DIVLTQSPASLAVSLGQRATISCRASQSVSTSSYSYMHWYQQKPGQPPKLLIKYASNLESGVPARFSGSGSGTDFTLNIHPVEEEDTATYYCQHSWEIPRTFGGGTKLEIK", "Top": "1.2e+06"}
{"Binder": "6G10D9 (antibody, V domains shown, murine antibody from hybridoma supernatant) VH: QVQLQQSGAELARPGASVKMSCKASGYTFTTYTMHWVKQRPGQGLEWLGYINPSSGYTNYNQKFKDKATLTAGKSSSTAYMQLSSLTSEDSAVYYCASLRSRGYFDYWGQGTTLTVSS VL: DIVMTQSQTFMSTSVGDRVRITCKASQNVGTAVVWYQQKTGQSPRLLIYSASNRYTGVPDRFTGSGSGTDFTLTISNMQSEDLADFFCQQYSSYPYTFGGGTKLEIK", "Top": "1.43e+06"}
